Test system: 922993-354-T-J3-PDC complex spheroid viability;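 further: spheroids exposed to the agents for one week; 100% = DMSO vehicle control wells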
Test: Anticancer human tumor 922993-354-T-J3-PDC patient-derived endometrial carcinoma cell line growth inhibition [POLQ]
Settings: second compound 10 µM; first compound 0.316 µM; hits give low values
recorded_endpoint: viability, T/C (%)
Respond with the bare value in %.

Ask | Quick one: viability, T/C for CNCc1ccc(-c2[nH]c3cc(F)cc4c3c2CCNC4=O)cc1 + COC1C(OC(N)=O)C(O)C(Oc2ccc3c(O)c(NC(=O)c4ccc(O)c(CC=C(C)C)c4)c(=O)oc3c2C)OC1(C)C ?
Reply | 80.9

Ask | Input CC(C)n1c(=O)n(C)c2cnc3cc(F)c(-c4ccc(OCCCN5CCCCC5)nc4)cc3c21 + Cc1cccc(N(C)C(=O)C2C(O)CCN2c2nc(C)cc(C(F)(F)F)c2C#N)c1
Reply | 107

Ask | Input CNCc1ccc(-c2[nH]c3cc(F)cc4c3c2CCNC4=O)cc1 + Cc1cccc(N(C)C(=O)C2C(O)CCN2c2nc(C)cc(C(F)(F)F)c2C#N)c1
Reply | 106

Ask | Input COc1cc2cc(C(=O)CCC(=O)O)sc2cc1OC + Cc1cccc(N(C)C(=O)C2C(O)CCN2c2nc(C)cc(C(F)(F)F)c2C#N)c1
Reply | 101

Ask | Input O=c1[nH]cc(F)c(=O)[nH]1 + COC1C(OC(N)=O)C(O)C(Oc2ccc3c(O)c(NC(=O)c4ccc(O)c(CC=C(C)C)c4)c(=O)oc3c2C)OC1(C)C
Reply | 86
